Listed compounds paired with reported DYRK1A % INH (1 μM)
Biological target: DYRK1 (Homo sapiens (Human))
Experiment: ADP-Glo Kinase Assay, DYRK1
Assay type: biochemical
Conditions: 1 μM compound
Only the number, expressed in %, is required.

Sample records with DYRK1A % INH (1 μM):
Query :: Return DYRK1A % INH (1 μM) measured with DYRK1 (Homo sapiens (Human)) given this compound: CC(C)n1c(NC2CCNC2)nc2c(C#N)c(Br)c(Br)cc21 (stereo not drawn) [Example 1BH]
Result :: 22

Query :: Return DYRK1A % INH (1 μM) measured with DYRK1 (Homo sapiens (Human)) given this compound: COCCn1c(N2CCNCC2)nc2c([N+](=O)[O-])c(Br)c(Br)cc21 [Example 1BB]
Result :: 61

Query :: Return DYRK1A % INH (1 μM) measured with DYRK1 (Homo sapiens (Human)) given this compound: CC(C)n1c(N[C@H]2CNC[C@@H]2O)nc2c([N+](=O)[O-])c(Br)c(Br)cc21.Cl [Example 1CE]
Result :: 37

Pending compound:
Query :: Return DYRK1A % INH (1 μM) measured with DYRK1 (Homo sapiens (Human)) given this compound: CCn1c(NC2CCC(N)CC2)nc2c([N+](=O)[O-])c(Br)c(Br)cc21 (stereo not drawn) [Example 1H]
Result :: 9

---

Molecular target: CYP3A4 (Homo sapiens (Human))
Sequence (P08684 whole entry): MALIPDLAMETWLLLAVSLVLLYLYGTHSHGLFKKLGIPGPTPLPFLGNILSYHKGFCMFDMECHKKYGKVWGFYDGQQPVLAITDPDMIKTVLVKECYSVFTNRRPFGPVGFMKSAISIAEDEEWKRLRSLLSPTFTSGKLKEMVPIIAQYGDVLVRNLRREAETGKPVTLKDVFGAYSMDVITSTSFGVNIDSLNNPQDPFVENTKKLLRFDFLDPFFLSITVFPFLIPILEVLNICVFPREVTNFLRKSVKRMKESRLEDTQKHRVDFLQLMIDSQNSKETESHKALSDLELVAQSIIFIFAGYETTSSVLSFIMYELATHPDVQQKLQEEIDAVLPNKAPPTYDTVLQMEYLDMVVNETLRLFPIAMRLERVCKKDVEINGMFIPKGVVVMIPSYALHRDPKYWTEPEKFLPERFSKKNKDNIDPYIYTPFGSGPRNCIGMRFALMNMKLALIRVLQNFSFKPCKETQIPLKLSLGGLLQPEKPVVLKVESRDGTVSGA
Test: Cytochrome P450 inhibition, fluorescence, CYP3A4
Conditions: recombinant CYP3A4, fluorescence detection; read-out: CYP inhibition (CYP 3A4 screening, IC50 class)
Counter-ions that a name gives are not always drawn.
measurement.type: IC50

Sample records with IC50:
Query :: Sample CCn1c(NC2CCNC2)nc2c([N+](=O)[O-])c(Br)c(Br)cc21 (stereo not drawn) — what was its IC50?
Result :: > 10 µM

Query :: Sample CC(C)n1c(N2CC[C@@H](N)C2)nc2c(C#N)c(Br)c(Br)cc21 — what was its IC50?
Result :: 1.1 to 3.3 µM

Query :: Sample NCCCNc1nc2c([N+](=O)[O-])c(Br)c(Br)cc2n1C1CCCC1 [Example 2H, hydrochloride] — what was its IC50?
Result :: 3.3 to 10 µM

Query :: Sample COC(CN)CNc1nc2c([N+](=O)[O-])c(Br)c(Br)cc2n1C(C)C (stereo not drawn) [Example 22AB] — what was its IC50?
Result :: 3.3 to 10 µM

New cases:
Query :: Sample CC(C)n1c(N[C@H]2CCNC2)nc2c([N+](=O)[O-])c(Br)c(Br)cc21 — what was its IC50?
Result :: > 10 µM

Query :: Sample CC(C)n1c(N2CCNCC2)nc2c([N+](=O)[O-])c(Br)c(Br)cc21 [Example 2A, hydrochloride] — what was its IC50?
Result :: 3.3 to 10 µM

Query :: Sample CCn1c(N[C@H]2CCCNC2)nc2c([N+](=O)[O-])c(Br)c(Br)cc21 — what was its IC50?
Result :: 1.1 to 3.3 µM

Query :: Sample CCn1c(NC2CCCNCC2)nc2c([N+](=O)[O-])c(Br)c(Br)cc21 (stereo not drawn) — what was its IC50?
Result :: 3.3 to 10 µM

Query :: Sample CCn1c(N2CCNCC2)nc2c([N+](=O)[O-])c(Br)c(Br)cc21 [Example 1A, hydrochloride] — what was its IC50?
Result :: 3.3 to 10 µM

---

Listed molecules paired with reported Pim-2 % INH (1 μM)
Molecular target: Pim-2 (Homo sapiens (Human))
Sequence (Q9P1W9 whole entry): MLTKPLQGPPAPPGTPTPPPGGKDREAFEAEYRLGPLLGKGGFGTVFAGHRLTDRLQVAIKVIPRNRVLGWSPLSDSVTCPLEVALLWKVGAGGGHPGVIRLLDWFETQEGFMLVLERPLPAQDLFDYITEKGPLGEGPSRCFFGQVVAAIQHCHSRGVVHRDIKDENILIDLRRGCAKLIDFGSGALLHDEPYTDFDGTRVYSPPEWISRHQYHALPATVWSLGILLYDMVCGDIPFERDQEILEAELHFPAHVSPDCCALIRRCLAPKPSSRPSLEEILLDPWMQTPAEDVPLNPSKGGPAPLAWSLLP
Experiment: ADP-Glo Kinase Assay, Pim-2
Assay type: biochemical
Conditions: 1 μM compound
Only the number, expressed in %, is required.

Sample records with Pim-2 % INH (1 μM):
Query :: Return Pim-2 % INH (1 μM) measured with Pim-2 (Homo sapiens (Human)) given this molecule: CC(C)n1c(N2CCC[C@H](N)C2)nc2c(C#N)c(Br)c(Br)cc21 [Example 1BV]
Result :: 82

Query :: Return Pim-2 % INH (1 μM) measured with Pim-2 (Homo sapiens (Human)) given this molecule: NCCCNc1nc2c([N+](=O)[O-])c(Br)c(Br)cc2n1CC1CC1 [Example 1AB]
Result :: 46

Query :: Return Pim-2 % INH (1 μM) measured with Pim-2 (Homo sapiens (Human)) given this molecule: O=[N+]([O-])c1c(Br)c(Br)cc2c1nc(N[C@H]1CCNC1)n2CC1CC1 [Example 1CI]
Result :: 64

Query :: Return Pim-2 % INH (1 μM) measured with Pim-2 (Homo sapiens (Human)) given this molecule: CC(C)n1c(N[C@H]2CCNC2)nc2c([N+](=O)[O-])c(Br)c(Br)cc21 [Example 1BD]
Result :: 65

Query :: Return Pim-2 % INH (1 μM) measured with Pim-2 (Homo sapiens (Human)) given this molecule: CCn1c(NCCN)nc2c([N+](=O)[O-])c(Br)c(Br)cc21 [Example 1AL]
Result :: 42

Query :: Return Pim-2 % INH (1 μM) measured with Pim-2 (Homo sapiens (Human)) given this molecule: CCn1c(N2CCC[C@H](N)C2)nc2c([N+](=O)[O-])c(Br)c(Br)cc21 [Example 1AH]
Result :: 55

New cases:
Query :: Return Pim-2 % INH (1 μM) measured with Pim-2 (Homo sapiens (Human)) given this molecule: CC(C)n1c(N2CC[C@@H](N)C2)nc2c([N+](=O)[O-])c(Br)c(Br)cc21 [Example 1AY]
Result :: 89

Query :: Return Pim-2 % INH (1 μM) measured with Pim-2 (Homo sapiens (Human)) given this molecule: CCn1c(N2CCCC(N)C2)nc2c([N+](=O)[O-])c(Br)c(Br)cc21.Cl (stereo not shown) [Example 1F]
Result :: 36

Query :: Return Pim-2 % INH (1 μM) measured with Pim-2 (Homo sapiens (Human)) given this molecule: CC(C)n1c(N[C@H]2CNC[C@@H]2O)nc2c([N+](=O)[O-])c(Br)c(Br)cc21.Cl [Example 1CE]
Result :: 53

---

Listed molecules paired with reported IC50
Tested on: HEL92 cells
Test: Growth inhibition, MTS assay, HEL92
Format: cell-based, Human
Details: 72 hours, MTS cell viability; read-out: HEL92 ED50
Only the number, expressed in µM, is required.

Query :: Sample CC(C)n1c(C2CCCC(N)C2)nc2c([N+](=O)[O-])c(Br)c(Br)cc21 (single isomer, unassigned) [Example 26B] — what was its IC50?
Result :: 6.1

Query :: Sample CC(C)n1c(N[C@H]2CCNC2)nc2c([N+](=O)[O-])c(Br)c(Br)cc21 — what was its IC50?
Result :: 5.5

Query :: Sample N[C@@H]1CCN(c2nc3c([N+](=O)[O-])c(Br)c(Br)cc3n2C2CCC2)C1 — what was its IC50?
Result :: 2.0

Pending molecule:
Query :: Sample CCn1c(N2CCNCC2)nc2c([N+](=O)[O-])c(Cl)c(Cl)cc21 — what was its IC50?
Result :: 9.4

---

System: HepG2 cells
Assay: Growth inhibition, MTS assay, HepG2
Assay type: cell-based, Human
Conditions: Homo sapiens, HepG2; 72 hours, MTS cell viability; read-out: HepG2 ED50
Structures can show the parent of a compound that is named as a salt.
measurement.type: IC50 (µM)
Only the number, expressed in µM, is required.

Query :: Return IC50 measured with HepG2 cells given this molecule: CCn1c(N2CCNCC2)nc2c([N+](=O)[O-])c(Br)c(Br)cc21 [Example 1A, hydrochloride]
Result :: 1.3

---

Biological target: CDK2/E (Homo sapiens (Human), UniProt P24941)
Test: ADP-Glo Kinase Assay, CDK2/E
Format: biochemical
Conditions: 1 μM compound
Procedure: Compounds of the present invention were tested for their inhibitory activity against Pim-1, Pim-2, Pim-3, Flt3 wt, Flt3 ITD, CDK2/E and DYRK1. The testing of the compounds was carried out using the ADP-Glo™ Kinase Assay from Promega Corporation (Madison, Wis., USA). The ADP-Glo™ Kinase Assay is a luminescent ADP detection assay to measure kinase activity by quantifying the amount of ADP produced during a kinase reaction. […]
Listed compounds paired with reported CDK2/E % INH (1 μM)
Only the number, expressed in %, is required.

Sample records with CDK2/E % INH (1 μM):
Query :: Sample O=[N+]([O-])c1c(Br)c(Br)cc2c1nc(N[C@H]1CCNC1)n2CC1CC1 — what was its CDK2/E % INH (1 μM)?
Result :: 10

Query :: Sample O=[N+]([O-])c1c(Br)c(Br)cc2c1nc(N[C@@H]1CCCNC1)n2CC1CC1 — what was its CDK2/E % INH (1 μM)?
Result :: 9

Query :: Sample CCn1c(N2CCC[C@H](N)C2)nc2c([N+](=O)[O-])c(Cl)c(Cl)cc21 — what was its CDK2/E % INH (1 μM)?
Result :: 6

Query :: Sample CC(C)n1c(N2CC[C@H](N)C2)nc2c([N+](=O)[O-])c(Br)c(Br)cc21 — what was its CDK2/E % INH (1 μM)?
Result :: 38

Query :: Sample CC(C)n1c(C2CCCC(N)C2)nc2c([N+](=O)[O-])c(Br)c(Br)cc21 (single isomer, unassigned) [Example 26C] — what was its CDK2/E % INH (1 μM)?
Result :: 55

Query :: Sample CCn1c(N2CC[C@@H](N)C2)nc2c([N+](=O)[O-])c(Cl)c(Cl)cc21 — what was its CDK2/E % INH (1 μM)?
Result :: 27

Pending compound:
Query :: Sample Cl.NC1CCCN(c2nc3c([N+](=O)[O-])c(Br)c(Br)cc3n2CC2CC2)C1 (stereo not shown) — what was its CDK2/E % INH (1 μM)?
Result :: 12

The values you see were collected from patent US10174013B2.
